Molecular target: NADPH oxidase 5 (Homo sapiens) (UniProt Q96PH1)
Sequence (Q96PH1 whole entry, looked up): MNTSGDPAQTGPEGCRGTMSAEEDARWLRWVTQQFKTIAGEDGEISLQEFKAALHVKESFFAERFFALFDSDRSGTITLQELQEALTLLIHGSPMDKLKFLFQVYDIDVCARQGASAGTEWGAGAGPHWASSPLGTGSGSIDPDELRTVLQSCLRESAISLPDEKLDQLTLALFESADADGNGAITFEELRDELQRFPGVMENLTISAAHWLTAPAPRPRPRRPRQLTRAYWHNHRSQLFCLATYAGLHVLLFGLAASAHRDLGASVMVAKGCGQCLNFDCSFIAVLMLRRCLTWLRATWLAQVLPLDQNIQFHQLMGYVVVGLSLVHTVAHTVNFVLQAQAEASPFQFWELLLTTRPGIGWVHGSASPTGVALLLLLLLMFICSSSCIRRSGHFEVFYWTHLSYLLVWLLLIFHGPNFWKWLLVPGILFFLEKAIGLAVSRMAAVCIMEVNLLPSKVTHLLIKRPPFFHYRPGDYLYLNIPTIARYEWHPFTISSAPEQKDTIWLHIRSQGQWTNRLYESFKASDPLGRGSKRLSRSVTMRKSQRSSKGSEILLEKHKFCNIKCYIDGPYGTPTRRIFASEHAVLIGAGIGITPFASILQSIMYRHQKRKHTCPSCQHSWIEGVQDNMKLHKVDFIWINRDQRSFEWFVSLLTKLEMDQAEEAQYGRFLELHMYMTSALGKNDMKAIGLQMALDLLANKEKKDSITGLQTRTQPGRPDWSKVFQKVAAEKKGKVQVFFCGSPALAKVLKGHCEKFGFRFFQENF
Assay: NOX5-dependent H2O2 signal modulators, primary screen, NOX inhibitor project, cell-based, HEK293-NOX5, Amplex Red fluorescence (AID 1161)
Details: HEK293-NOX5, ionomycin, 45 min, higher = more signal
measured quantity: z-score

Your task in this section: give z-score for each listed record.
1. O=C1c2ccccc2[C@](Cc2ccccc2I)(C(=O)O)[C@H](c2ccc(CO)cc2)N1Cc1ccccc1Cl
2. O=c1n(-c2ccccc2)c(=O)n2n1CC(COc1ccccc1)=C1[C@@H](CCc3ccccc3)OB(O)C[C@@H]12
3. C=CCOC(=O)[C@H]1[C@@H]2C(=O)O[C@@H](c3ccccc3)[C@@H](c3ccccc3)N2[C@@H](c2ccc(OCCOC(=O)[C@H]3C[C@H]4C(=O)N5CCC[C@H]5C(=O)N4[C@H]3c3cccc(OCCO)c3)cc2)[C@]12C(=O)Nc1ccccc12
4. CC(C)C(CO)N1C(=O)[C@@H]2C3C(=O)OCCC/C=C\[C@H]3OC23C=CCN(C(C)C)C(=O)[C@@H]13 (some centres not stated)
5. C=C(CCCC)/C(=C/C[C@@H](OC(=O)c1ccncc1)c1ccc(OCCO)cc1)c1cnc2ccccc2c1

1: 2.39; 2: -1.03; 3: 1.43; 4: 1.56; 5: -0.922

Please go through the list and note z-score for each molecule.
1. [N-]=[N+]=NCc1ccccc1C[C@@]1(C(=O)O)N=C(c2ccc(OCCCO)cc2)O[C@@H]1c1ccccc1
2. C=C(CCCC)/C(=C/C[C@H](OC(=O)c1ccncc1)c1ccc(CO)o1)c1cnc2ccccc2c1

1: 1.48; 2: 0.737
